The origin of these recorded values is ChEMBL document CHEMBL5104187.

systemTested: Androgen receptor (Homo sapiens, UniProt P10275, F877L/T878A)
experimentSummary: Antagonist activity at androgen receptor F876L/T877A mutant in human PC-3 cells assessed as inhibition of transcriptional activity measured after 24 hrs by luminescence based microplate reader assay
Format: cell-based
Known IC50 of a selection of compounds

smilesString: N#Cc1ccc(-n2ccc(CC(=O)Nc3ccc(F)nc3)n2)cc1C(F)(F)F
IC50, nM: 1120
--
smilesString: N#Cc1ccc(-n2ccc(CC(=O)Nc3ccc(F)nc3)n2)cc1Cl
IC50, nM: 270
--
smilesString: N#Cc1ccc(-n2ccc(CC(=O)Nc3ccc(F)cc3)n2)cc1C(F)(F)F
IC50, nM: 250

###

experimentSummary: Cytotoxicity against human GES1 cells assessed as inhibition of cell proliferation by MTT assay
Assay type: toxicity, cell-based

molecule: N#Cc1ccc(-n2ccc(CC(=O)Nc3ccc(F)nc3)n2)cc1Cl
IC50: > 1000 µM
//
molecule: N#Cc1ccc(-n2ccc(CC(=O)Nc3ccc(F)cc3)n2)cc1C(F)(F)F
IC50: > 1000 µM
//
molecule: CNC(=O)c1ccc(N2C(=S)N(c3ccc(C#N)c(C(F)(F)F)c3)C(=O)C2(C)C)cc1F [ENZALUTAMIDE]
IC50: 96.9 µM
//
molecule: N#Cc1ccc(-n2ccc(CC(=O)Nc3ccc(F)nc3)n2)cc1C(F)(F)F
IC50: > 1000 µM

###

Known pIC50 of a selection of compounds
systemTested: Androgen receptor (Homo sapiens, UniProt P10275)
Sequence (P10275 whole entry): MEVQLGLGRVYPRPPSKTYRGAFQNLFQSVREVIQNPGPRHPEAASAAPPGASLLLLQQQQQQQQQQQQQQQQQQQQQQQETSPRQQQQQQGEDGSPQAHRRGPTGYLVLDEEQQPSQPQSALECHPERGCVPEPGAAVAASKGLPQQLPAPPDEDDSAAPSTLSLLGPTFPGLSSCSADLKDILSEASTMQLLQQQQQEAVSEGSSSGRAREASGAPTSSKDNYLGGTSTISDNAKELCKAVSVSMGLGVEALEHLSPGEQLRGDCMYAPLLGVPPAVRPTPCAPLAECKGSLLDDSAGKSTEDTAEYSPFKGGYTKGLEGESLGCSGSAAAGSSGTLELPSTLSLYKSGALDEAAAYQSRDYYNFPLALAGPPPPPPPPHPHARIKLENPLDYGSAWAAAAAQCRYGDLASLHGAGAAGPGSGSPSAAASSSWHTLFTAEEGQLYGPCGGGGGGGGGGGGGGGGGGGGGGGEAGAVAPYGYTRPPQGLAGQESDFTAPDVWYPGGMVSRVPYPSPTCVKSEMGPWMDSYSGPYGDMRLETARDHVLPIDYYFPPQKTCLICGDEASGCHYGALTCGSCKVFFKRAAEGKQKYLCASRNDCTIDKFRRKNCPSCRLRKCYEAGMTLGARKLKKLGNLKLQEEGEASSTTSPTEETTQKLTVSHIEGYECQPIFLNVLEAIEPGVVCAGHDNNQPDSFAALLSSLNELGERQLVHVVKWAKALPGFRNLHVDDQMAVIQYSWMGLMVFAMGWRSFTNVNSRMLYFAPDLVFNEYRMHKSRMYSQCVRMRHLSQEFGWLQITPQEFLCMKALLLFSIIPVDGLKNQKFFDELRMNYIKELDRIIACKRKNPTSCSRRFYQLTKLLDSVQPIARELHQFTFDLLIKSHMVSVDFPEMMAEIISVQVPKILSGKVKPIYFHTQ
experimentSummary: Antagonist activity at androgen receptor (unknown origin) in human LNCap-ARR2PB-eGFP cells by measuring fluorescence intensity measured after 3 days by transcriptional assay
pIC50: −log10 of the molar value.
propertyName: pIC50

smilesString: N#Cc1ccc(-n2ccc(CC(=O)Nc3ccc(F)cc3)n2)cc1Cl
sign: =
experimentalResult: 6.66
--
smilesString: N#Cc1ccc(-n2ccc(CCNC(=O)c3ccc([N+](=O)[O-])cc3)n2)cc1C(F)(F)F
sign: <
experimentalResult: 4.60
--
smilesString: CC(C)(O)c1ccc(C(=O)NCc2ccn(-c3ccc(C#N)c(C(F)(F)F)c3)n2)cc1
sign: <
experimentalResult: 4.60
--
smilesString: N#Cc1ccc(-n2ccc(CCCNC(=O)c3ccc(F)cc3)n2)cc1C(F)(F)F
sign: <
experimentalResult: 4.60
--
smilesString: N#Cc1ccc(-n2cc(-c3ccccc3)c(CNC(=O)c3ccc(F)cc3)n2)cc1C(F)(F)F
sign: <
experimentalResult: 4.60
--
smilesString: N#Cc1ccc(-n2ccc(CNC(=O)c3ccc(F)cn3)n2)cc1C(F)(F)F
sign: =
experimentalResult: 5.24
--
smilesString: N#Cc1ccc(-n2ccc(NC(=O)Nc3ccc(F)cc3)n2)cc1C(F)(F)F
sign: <
experimentalResult: 4.60
--
smilesString: N#Cc1ccc(-n2ccc(C(=O)Nc3ccc(F)cn3)n2)cc1C(F)(F)F
sign: <
experimentalResult: 4.60
--
smilesString: N#Cc1ccc(-n2ccc(CNC(=O)c3ccc(Cl)cc3)n2)cc1C(F)(F)F
sign: =
experimentalResult: 5.94
--
smilesString: O=C(Cc1ccn(-c2ccc([N+](=O)[O-])c(C(F)(F)F)c2)n1)Nc1ccc(F)nc1
sign: =
experimentalResult: 6.44
--
smilesString: N#Cc1ccc(-n2cc(C(F)(F)F)c(CNC(=O)c3ccc(F)cc3)n2)cc1C(F)(F)F
sign: =
experimentalResult: 4.79
--
smilesString: N#Cc1ccc(-n2ccc(CC(=O)Nc3ccc([N+](=O)[O-])cc3)n2)cc1C(F)(F)F
sign: =
experimentalResult: 7.10
--
smilesString: N#Cc1ccc(C(=O)NCCc2ccn(-c3ccc(C#N)c(C(F)(F)F)c3)n2)cc1
sign: <
experimentalResult: 4.60
--
smilesString: N#Cc1ccc(NC(=O)c2ccn(-c3ccc(C#N)c(C(F)(F)F)c3)n2)cc1
sign: <
experimentalResult: 4.60
--
smilesString: N#Cc1ccc(-n2ccc(CC(=O)Nc3ccc(F)cc3)n2)cc1C(F)(F)F
sign: =
experimentalResult: 6.92
--
smilesString: N#Cc1ccc(-n2ccc(CNC(=O)c3ccc([N+](=O)[O-])cc3)n2)cc1C(F)(F)F
sign: =
experimentalResult: 5.73
